Data origin: ChEMBL document CHEMBL3885861

- Species: Rattus norvegicus
- procedure details: Open TG-GATES - Regimen: Single
- Format: toxicity, organism-based, Sprague-Dawley
- Design: regimen Single, gender Male, age 6 weeks
- experimental setup: in vivo, po, 1000 mg/kg, 3 h, tissue Plasma, route gavage, dose level High
measure name: CRE (mg/dL)
Please give a number only; it is taken to be in mg/dL.

- structure as smiles: "CNC(=C[N+](=O)[O-])NCCSCc1ccc(CN(C)C)o1"
  unit label: "mg/dL"
  numeric value: 0.4
- structure as smiles: "O=C(OC[C@H]1O[C@@H](OC(=O)c2cc(O)c(O)c(OC(=O)c3cc(O)c(O)c(O)c3)c2)[C@H](OC(=O)c2cc(O)c(O)c(OC(=O)c3cc(O)c(O)c(O)c3)c2)[C@@H](OC(=O)c2cc(O)c(O)c(OC(=O)c3cc(O)c(O)c(O)c3)c2)[C@@H]1OC(=O)c1cc(O)c(O)c(OC(=O)c2cc(O)c(O)c(O)c2)c1)c1cc(O)c(O)c(OC(=O)c2cc(O)c(O)c(O)c2)c1"
  unit label: "mg/dL"
  numeric value: 0.4
- structure as smiles: "Cc1nnc2n1-c1ccc(Cl)cc1C(c1ccccc1Cl)=NC2"
  unit label: "mg/dL"
  numeric value: 0.1
- structure as smiles: "CN/C(=N/CCSCc1nc[nH]c1C)NC#N"
  unit label: "mg/dL"
  numeric value: 0.4

Pending compound:
Form field CRE, entry COC(=O)C1=C(C)NC(C)=C(C(=O)OC)C1c1ccccc1[N+](=O)[O-] : 0.2
